- targetSystem: aromatase (Homo sapiens, UniProt P11511)
- Sequence (P11511 whole entry): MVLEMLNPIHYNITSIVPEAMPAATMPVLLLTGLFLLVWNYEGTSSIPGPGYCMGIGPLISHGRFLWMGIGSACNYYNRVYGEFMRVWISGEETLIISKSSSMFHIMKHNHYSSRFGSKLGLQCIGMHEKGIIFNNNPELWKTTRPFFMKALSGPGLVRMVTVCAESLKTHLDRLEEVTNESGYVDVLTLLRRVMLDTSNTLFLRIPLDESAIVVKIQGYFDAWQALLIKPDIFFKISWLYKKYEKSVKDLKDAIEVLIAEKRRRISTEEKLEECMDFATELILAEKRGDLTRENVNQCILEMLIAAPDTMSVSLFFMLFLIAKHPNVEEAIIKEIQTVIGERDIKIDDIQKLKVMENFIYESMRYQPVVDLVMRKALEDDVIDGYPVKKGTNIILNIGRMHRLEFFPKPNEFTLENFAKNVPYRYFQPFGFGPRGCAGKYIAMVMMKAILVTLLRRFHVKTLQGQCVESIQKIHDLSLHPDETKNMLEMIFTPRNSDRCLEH
measurementName: pIC50
Numbers only, as −log10 of the molar value.

So, N#Cc1ccc(N(Cc2cc(F)cc(F)c2)c2cncnc2)cc1 [Example 34] ? Its pIC50 was 10.44
